# Test system: SW480 human large intestine cell line
# Format: cell-based
Give measured IC50 for each item. Keep answers brief.
Return type: number; implicit unit nM.

So for CCCNC(=O)Nc1cccc(S(=O)(=O)Nc2cccc(C(CC(=O)O)NC(=O)Nc3ccc(NC(=S)N[C@@H](CCC)C(=O)N4CCC[C@H]4C(=O)N[C@H](C(=O)O[C@]4(CC)C(=O)OCc5c4cc4n(c5=O)Cc5cc6ccccc6nc5-4)C(C)C)cc3)c2)c1 (single isomer, unassigned) , the logged IC50 turned out to be 600

Record summary for CCCNC(=O)Nc1cccc(S(=O)(=O)Nc2cccc(C(CC(=O)O)NC(=O)Nc3ccc(NC(=S)N[C@@H](Cc4c[nH]cn4)C(=O)N4CCC[C@H]4C(=O)N[C@H](C(=O)O[C@]4(CC)C(=O)OCc5c4cc4n(c5=O)Cc5cc6ccccc6nc5-4)C(C)C)cc3)c2)c1 (single isomer, unassigned) : reported IC50 = 700

Summary for this compound, CCCNC(=O)Nc1cccc(S(=O)(=O)Nc2cccc(C(CC(=O)O)NC(=O)Nc3ccc(NC(=S)N[C@@H](C)C(=O)N4CCC[C@H]4C(=O)N[C@H](C(=O)O[C@]4(CC)C(=O)OCc5c4cc4n(c5=O)Cc5cc6ccccc6nc5-4)C(C)C)cc3)c2)c1 (single isomer, unassigned) [Example 4] : IC50 is 600
